Luciferase assay (EC50) values, listed per item
Molecular target: human CD28 (human, UniProt P10747 19-220)
Experiment: cell-based or functional assay
READOUT TYPE: Luciferase assay (EC50) (nM)

{"columns": ["BINDER", "MEASURED VALUE"],
 "data": [
  ["1h-79-24 (other) VL: DIQMTQSPSSLSASVGDRVTITCRASQPIGHSLGWYQQKPGKAPKLLIYWASTLQSGVPSRFSGSGSGTDFTLTISSLQPEDFATYYCQQMLRTPFAFGQGTKVEIKR", 331],
  ["1h-239-832 (other) VL: DIQMTQSPSSLSASVGDRVTITCRASQSIYPFLEWYQQKPGKAPKLLIYFTSYLREGVPSRFSGSGSGTDFTLTISSLQPEDFATYYCLQNVTNPATFSQGTKVEIKR", 12],
  ["1h-35-2 (other) VL: DIQMTQSPSSLSASVGDRVTITCRASQYIGSALGWYQQKPGKAPKLLIYRASHLQSGVPSRFSGSGSGTDFTLTISSLQPEDFATYYCQQLAIRPFTFGQGTKVEIKR", 279],
  ["1h-36 (other) VL: DIQMTQSPSSLSASVGDRVTITCRASRDIALDLLWYQQKPGKAPKLLIKGWSGLQSGVPSRFSGSGSGTDFTLTISSLQPEDFATYYCAQGWGRPVTFGQGTKVEIKR", 570]
]}

# credit: patent US20130109846A1
